Measured TGI by item
Test system: HL-60(TB) leukemia
Test: NCI tumour cell line growth inhibition, 48 h

- compound: "CCOP(=O)(OCC)C(F)(F)CC1CCCCC1"
  tgt: "HL-60(TB) leukemia"
  readout: "TGI"
  testValue: "> 10 µM"

Name the recorded TGI for O=C(NCCCCl)c1c(O)c2ccccc2[nH]c1=O . > 100 µM

Okay, and C[C@H](NC(=O)CCC(F)(F)F)C(=O)N[C@@H]1C(=O)N(CCO)c2ncccc2-c2ccccc21 ? > 100 µM

Okay, and COc1ccc(NC(=O)C2=C(SC)C(=O)N=C2N)cc1 ? > 100 µM

Okay, and CC(=O)C1=C(O)/C(=C\c2ccco2)OC1=O ? > 10 µM

Okay, and COc1ccccc1NC(=O)C(=O)C1C(=O)Nc2ccccc2S1=O (centres undefined) ? > 100 µM

Okay, and CC(C)(C)c1ccc(S(=O)(=O)N[C@H]2CC[C@H]3[C@@H]4CCc5cc(O)ccc5[C@H]4CC[C@]23C)cc1 ? 6.11 µM

----------
Test system: CAKI-1 renal
Assay: NCI tumour cell line growth inhibition, 48 h
readout: TGI

Some solved cases for reference:
- compound: "COc1ccc(N=C2NN=C(c3c[nH]c4ccccc34)CS2)cc1OC"
  tgt: "CAKI-1 renal"
  testValue: "> 79.1 µM"
- compound: "O=C(O)c1ccc(Nc2cnc3ccc(C(F)(F)F)cc3n2)cc1"
  tgt: "CAKI-1 renal"
  testValue: "30.9 µM"
- compound: "CCOC(=O)Cc1nc2c(=O)[nH]cnc2n1C1OC(COC(C)=O)C(OC(C)=O)C1OC(C)=O (stereo unspecified)"
  tgt: "CAKI-1 renal"
  testValue: "> 100 µM"
- compound: "O=C(CCCN1CCc2[nH]c3cc(F)ccc3c2C1)c1ccc(F)cc1"
  tgt: "CAKI-1 renal"
  testValue: "> 100 µM"
- compound: "OCCCCC#Cc1ccccc1C#Cc1cnccn1"
  tgt: "CAKI-1 renal"
  testValue: "> 100 µM"

Name the recorded TGI for CCOc1ccc(NC(=S)/N=C/C(C(=O)Nc2ccccc2C)=C(\C)O)cc1 . > 100 µM

----------
Test system: OVCAR-8 ovarian
Assay: NCI tumour cell line growth inhibition, 48 h; in the data active = GI50 below about 0.43 µM; inactive = the rest
Please answer using one outcome listed in 1 (active), -1 (inactive)

- compound: "CC(=O)Nc1ccc(-n2cnc3cc(-c4ccc(OCCN5CCCCC5)cc4)ccc32)cc1"
  class: -1
- compound: "O=[N+]([O-])c1cccc(-c2ncc(-c3ccc(Cl)cc3Cl)[nH]2)c1"
  class: -1
- compound: "CC[C@@]1(OC(=O)CN(C)C)C(=O)OCc2c1cc1n(c2=O)Cc2cc3ccccc3nc2-1"
  class: 1
- compound: "O=c1c2cc(F)ccc2sc2c(NCCCN3CCCC3)nc3ccccc3c12"
  class: -1
- compound: "O=c1[nH]c2cc(O)ccc2n2cc3c(F)cccc3c12"
  class: -1
- compound: "Cc1ccc(OCCCCCCNCCO)c(C)c1"
  class: -1

Hi, do you know how CC1(C)CC2(C)OC2C2(C1)N=NC(=Nc1ccccc1)O2 (stereo not drawn) came out in this test? -1

Okay, and COc1ccc(S(=O)(=O)NCCNc2nccc(-c3c(-c4ccccc4)nc4sccn34)n2)cc1 ? -1

----------
System: HS 578T breast
Assay: NCI tumour cell line growth inhibition, 48 h
readout: GI50

- compound: "CCOC(=O)Cc1csc(NC(=O)C(OC(=O)c2ccc(N)cc2)c2ccccc2)n1 (stereo unspecified)"
  tgt: "HS 578T breast"
  GI50: "80.9 µM"
- compound: "Nc1ncnc2c1ncn2Cc1ccc(C23CC4CC(CC(C4)C2)C3)c(O)c1"
  tgt: "HS 578T breast"
  GI50: "10.7 µM"
- compound: "COc1cc(C(=O)N/N=C/c2cccc([N+](=O)[O-])c2)cc(OC)c1OC"
  tgt: "HS 578T breast"
  GI50: "2.02 µM"
- compound: "CCOc1cccnc1/C=N/NC(N)=S"
  tgt: "HS 578T breast"
  GI50: "52.3 µM"
- compound: "O=c1c2cc(F)ccc2sc2c(NCCCN3CCCC3)nc3ccccc3c12"
  tgt: "HS 578T breast"
  GI50: "2.18 µM"

Next up:
What is its GI50 for HS 578T breast? Entry: C#Cc1cccc(Nc2ncnc3ccc(-c4cncc(NS(C)(=O)=O)c4)cc23)c1 1.1 µM
